System: RARg:RXRa (NR concentration 270 nM, RXRa partner concentration 90 nM)
Experiment: PBM binding z-score (relative to random genomic background probes); higher = stronger binding; sequences stand for … in GC…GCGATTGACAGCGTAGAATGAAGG
Binning rule for recorded PBM binding z-score: A: < 0.9; B: ≥ 0.9 and < 2; C: ≥ 2

Before answering, review these 5 worked examples.
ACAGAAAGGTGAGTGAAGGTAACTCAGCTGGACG ... B
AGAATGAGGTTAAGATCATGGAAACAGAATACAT ... B
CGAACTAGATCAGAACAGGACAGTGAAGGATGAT ... A
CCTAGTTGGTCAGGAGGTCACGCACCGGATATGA ... C
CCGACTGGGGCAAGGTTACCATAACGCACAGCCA ... B

Band assignment needed for `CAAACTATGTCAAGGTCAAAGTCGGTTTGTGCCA` please.
C

Band assignment needed for `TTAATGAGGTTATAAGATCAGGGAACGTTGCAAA` please.
B

Band assignment needed for `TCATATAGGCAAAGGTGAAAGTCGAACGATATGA` please.
B

Band assignment needed for `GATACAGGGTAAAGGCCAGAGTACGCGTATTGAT` please.
A

Band assignment needed for `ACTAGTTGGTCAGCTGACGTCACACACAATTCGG` please.
A

Band assignment needed for `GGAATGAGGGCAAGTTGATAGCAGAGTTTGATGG` please.
B
